Biological target: hPD-L1 (antigen of the Biacore assay) (human, UniProt Q9NZQ7 19-238, limits assumed)
Sequence (Q9NZQ7 19-238 limits assumed): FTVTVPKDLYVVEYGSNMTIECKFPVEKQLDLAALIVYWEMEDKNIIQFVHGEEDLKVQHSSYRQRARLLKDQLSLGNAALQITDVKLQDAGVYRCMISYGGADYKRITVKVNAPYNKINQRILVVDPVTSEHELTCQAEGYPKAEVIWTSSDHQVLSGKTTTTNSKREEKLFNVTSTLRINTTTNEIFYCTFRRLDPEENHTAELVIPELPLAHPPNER
Test: SPR (Biacore), antibody captured on anti-human Fc, antigen in flow

binder	Kd, nM
23F11-H6L4 (antibody, V domains shown, Humanized; also called humanized 23F11 H6L4) VH: QVQLVQSGAEVKKPGASVKVSCKASGYIFTTYWMHWVRQAPGQGLEWIGMIQPNSGGTKYNEKFKKKATLTVDTSISTAYMELSRLRSDDTAVYYCARGAGTVDYFDYWGQGSTLTVSS VL: DIVLTQSPASLAVSVGQRATITCRASESVDIYGNSFMHWYQQKPGQPPKLLIYRASNLESGIPARFSGSGSRTDFTLTINPVEANDTATYYCQQSTEDPYTFGGGTKLEIK	103
4B6-H4L3 (antibody, V domains shown, Humanized; also called humanized 4B6 H4L3) VH: QVQLVQSGAEVKKPGASVKVSCKASGYVFTDYYMNWVRQAPGQGLEWIGDINPNNGGTSYNQKFQGRVTVTVDTSIRTAYMELSRLRSDDTAVYYCVKWGDGPFAYWGQGTLVTVSS VL: DIQMTQSQSSLSASVGDRVTITCQASQNVGAAVAWYQQKPGKAPKLLIYSASNRYTGVPSRFSGSGSGTDFTLTISSMQPEDIATYFCQQYSNYPTFGSGTKLGIK	11.3
23F11-H4L4 (antibody, V domains shown, Human IgG1 constant region with N297A; biotinylated in the alanine-scan ELISA; also called 23F11-H4L4-bio; humanized 23F11) VH: QVQLVQSGAEVKKPGASVKLSCKASGYIFTTYWMHWVKQRPGQGLEWIGMIQPNSGGTKYNEKFKKKATLTVDKSISTAYMELSRLTSDDTAVYYCARGAGTVDYFDYWGQGSTLTVSS VL: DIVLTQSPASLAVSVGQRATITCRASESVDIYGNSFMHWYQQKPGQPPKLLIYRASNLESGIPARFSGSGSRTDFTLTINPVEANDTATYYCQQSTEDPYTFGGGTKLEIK	65.4
23A11-H3L5 (antibody, V domains shown, Human IgG1 constant region with N297A; biotinylated in the alanine-scan ELISA; also called 23A11-H3L5-bio; humanized 23A11) VH: LVQLVQSGAEVKKPGASVKLSCKASGYIFTTYWIHWVKQRPGQGLEWIGMIQPNSGGTKYNDQFKNRATLTVDKSISTAYMELSRLTSDDTAVYYCARGAGTVDYFDYWGQGTTLSISS VL: DIVLTQSPASLAVSVGQRATITCRASESVDIYGNSFMHWYQQKPGQAPKLLIYRASNLESGIPARFSGSGSRTDFTLTINPVEANDTATYYCQQSNDDPYTFGGGTKLETK	43.2
